- Protocol details: gradient 5% acetonitrile 3 min, to 50% in 2 min, to 85% in 15 min, held 3 min, 100 µL/min
- Condition info: column: Zorbax Extend-C18 2.1 x 50 mm; eluents: water / acetonitrile, 0.1% formic acid
Readout type: RP-LC retention time (s)
Numbers only, in s.

Sample records with RP-LC retention time:
COC(=O)c1cc(S(=O)(=O)N2CCCC2C(=O)Nc2ccc(OC)cc2)cn1C (centres undefined) : 818
CC(C)NC(=O)C1CN(S(=O)(=O)c2ccccc2)c2cc(C(C)(C)C)ccc2O1 (centres undefined) : 780
COc1cc(OC)c(NC(=O)N2CC(Cc3nc(-c4cnccn4)no3)C2)cc1Cl : 733
COc1ccccc1NC(=O)N1CCCC1c1nc(-c2cccc(C)c2)no1 (centres undefined) : 1080
Cc1ccc(-n2c(N3CCCC(C(=O)Nc4ccc(C)c(F)c4)C3)nc3ccsc3c2=O)cc1 (centres undefined) : 1070
CC1=C(c2ccccc2)S(=O)(=O)N=C1N1CCCN(C(=O)NC(C)C)CC1 : 714

Batch request: RP-LC retention time per item, same order as input.
1. CC1(C)CC(=O)C2=C(C1)N(Cc1cccnc1)C(=O)C2(NC(=O)C1CCCCC1)C(F)(F)F (centres undefined)
2. CCOc1ccc(NS(=O)(=O)c2cc(C(=O)Nc3ccc(Br)cc3)n[nH]2)cc1
3. O=C(C1CC1)N1CCC2(CCCCO2)CC1

Solution:
1: 659; 2: 927; 3: 668
